Assay: HCT116 colon cancer cell growth inhibition, primary screen, CellTiter-Glo luminescence, NPC library (AID 1117342)
Conditions: at 20 µM (top of the series)
reported_property: inhibition of viability (%)
Give a bare numeral; the unit % is implied.

Which inhibition of viability value is on record for Cc1cnc(C(=O)O)c[n+]1[O-] ?
3

Name the reported inhibition of viability value associated with the molecule CC[C@]12CCCN3CCc4c(n(c5ccccc45)[C@@](O)(C(=O)OC)C1)[C@@H]32
-43.9

Request the reported inhibition of viability associated with CN(C)C(=O)Nc1ccc(Cl)c(Cl)c1
-2.8

Looking for the measured inhibition of viability of CN1CCN(CCCN2c3ccccc3Sc3ccc(Cl)cc32)CC1 , can you help?
86

Bench note: what inhibition of viability did O=c1ccc2ccccc2o1 show?
12.6

Param item = Cc1cc(C(C)(C)C)c(O)c(C(C)(C)C)c1 ; retrieve measured inhibition of viability.
10.4

Param item = COc1cc(OC)cc(OC)c1 ; retrieve measured inhibition of viability.
-3.13

Requested field: inhibition of viability. Item: CC(C)[C@H](N)C(=O)OCCOCn1cnc2c(=O)[nH]c(N)nc21
-1

Entry NC(CS)C(=O)O (stereo not drawn) : reported inhibition of viability = ?
16.7

// query inhibition of viability value for entry CN1CCN(CC(=O)N2c3ccccc3C(=O)Nc3cccnc32)CC1
-2.2

Find the recorded inhibition of viability belonging to CC(C)NCC(O)c1ccc2ccccc2c1 (stereo not drawn) and report it.
26.4

What does the data say about its inhibition of viability? Entry: CCN(CC)CCOC(=O)C(c1ccccc1)c1ccccc1
8.4

What value of inhibition of viability has been recorded for this entry: O=C(O)c1cccnc1Nc1cccc(C(F)(F)F)c1
-5.9

Param item = CC[C@]12CCCN3CCc4c(n(c5ccccc45)C(=O)C1)[C@@H]32 ; retrieve measured inhibition of viability.
35.7

What measured inhibition of viability goes with O=c1oc2cc(O)ccc2s1 ?
-4.7

Fill blank: measured inhibition of viability of the molecule CC(=O)NO is ____.
10.6

Return reported inhibition of viability; argument: CC(C(=O)O)c1ccc(CC2CCCC2=O)cc1 (stereo not drawn)
10.8

Please look up its inhibition of viability: C[N+]12CCC(CC1)C(OC(=O)C(O)(c1ccccc1)c1ccccc1)C2 (stereo not drawn)
10.6

# query: inhibition of viability of entry CN1CCN(c2cc3c(cc2F)c(=O)c(C(=O)O)cn3-c2ccc(F)cc2)CC1
17.4

# inhibition of viability lookup, item C#C[C@]1(O)CC[C@H]2[C@@H]3CCc4cc(OC)ccc4[C@H]3CC[C@@]21C
45

# query: inhibition of viability of entry O=C(O)CCCC[C@@H]1SC[C@@H]2NC(=O)N[C@@H]21
-15

Find the recorded inhibition of viability belonging to CC1CC(OC(=O)C(O)c2ccccc2)CC(C)(C)N1C (stereo not drawn) and report it.
9.83

For CN1CCC(=C2c3ccccc3Sc3ccccc32)CC1 , what is its reported inhibition of viability?
36.4

Entry CC(C)(Oc1ccc(CCNC(=O)c2ccc(Cl)cc2)cc1)C(=O)O : reported inhibition of viability = ?
4.05

// lookup inhibition of viability for CCN(CC)CCNc1ccc(CO)c2sc3ccccc3c(=O)c12
78.1

# get_value(readout='inhibition of viability', item= Cn1nnc2c(C(N)=O)ncn2c1=O )
1.9

Look up inhibition of viability: O=c1[nH]cnc2c1ncn2[C@H]1CC[C@@H](CO)O1
-3.4

Name the reported inhibition of viability value associated with the molecule CCN1CCCC1CNC(=O)c1cc(S(=O)(=O)CC)c(N)cc1OC (stereo not drawn)
-1.4
